- Tested on: 349418-098-R-PDC spheroids, viability, % test/control;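 also: spheroids exposed to compounds for 7 days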
- procedure-details: Anticancer human tumor 349418-098-R-PDC patient-derived lung adenocarcinoma cell line growth inhibition [IpAb]
- condition-info: curve of first compound; second compound 0.0316 µM; spheroids with HUVEC and MSC
- Experimental: Combinatorial screen of targeted agents with ipatasertib and abemaciclib in multi-cell type tumor spheroids […] Compounds. […] If the clinical Cmax for an agent had not been determined, the highest concentration tested was 10 microM. NCI60 Cell Culture. […] The optimal seeding densities for each of the cell lines at each time point assessed were determined prior to performing the concentration response studies. […]

compound | target-desc | IC50
Cn1nccc1Nc1nccc(-c2ccn(C(CO)c3ccc(Cl)c(F)c3)c(=O)c2)n1 (stereo not drawn) + CCN1CCN(Cc2ccc(Nc3ncc(F)c(-c4cc(F)c5nc(C)n(C(C)C)c5c4)n3)nc2)CC1 | 349418-098-R-PDC spheroids, viability, % test/control | < 31.6 nM
Cn1cnc2c(F)c(Nc3ccc(Br)cc3Cl)c(C(=O)NOCCO)cc21 + CCN1CCN(Cc2ccc(Nc3ncc(F)c(-c4cc(F)c5nc(C)n(C(C)C)c5c4)n3)nc2)CC1 | 349418-098-R-PDC spheroids, viability, % test/control | < 9.49 nM
CC(C)(C)c1cnc(CSc2cnc(NC(=O)C3CCNCC3)s2)o1 + CCN1CCN(Cc2ccc(Nc3ncc(F)c(-c4cc(F)c5nc(C)n(C(C)C)c5c4)n3)nc2)CC1 | 349418-098-R-PDC spheroids, viability, % test/control | < 9.49 nM
